Where do these numbers come from? They come from paper PMC5221612.

Tested on: GT-1a NS3/4A protease with R123T/I132L/D168Q (1a3a)
Experiment Notes: Enzyme inhibition assay, chimeric 1a3a NS3/4A protease
Type: biochemical, Hepatitis C virus
Study Conditions: 1a3a chimera vs GT-1 WT
Listed here: items and their measured loss in potency, R123T/I132L/D168Q (1a3a) relative to GT-1 WT.

[
  {
    "Smiles Notation": "C=C[C@@H]1C[C@]1(NC(=O)[C@@H]1C[C@@H]2CN1C(=O)[C@H](C(C)(C)C)NC(=O)O[C@@H]1C[C@H]1CCCCCc1nc3ccc(OC)cc3nc1O2)C(=O)NS(=O)(=O)C1CC1.O",
    "System Tested": "GT-1a NS3/4A protease with R123T/I132L/D168Q (1a3a)",
    "Measurement": "2–3 orders of magnitude"
  },
  {
    "Smiles Notation": "COc1ccc2nc3c(nc2c1)O[C@@H]1C[C@H]2C(=O)N[C@]4(C(=O)NS(=O)(=O)C5(C)CC5)C[C@H]4/C=C/CCCCC[C@H](NC(=O)O[C@@H]4CCC[C@H]4CCCCC3)C(=O)N2C1",
    "System Tested": "GT-1a NS3/4A protease with R123T/I132L/D168Q (1a3a)",
    "Measurement": "2–3 orders of magnitude"
  }
]

GET /values?item= `CC(C)(C)OC(=O)N[C@H]1CCCCC/C=C\[C@@H]2C[C@@]2(C(=O)NS(=O)(=O)C2CC2)NC(=O)[C@@H]2C[C@@H](OC(=O)N3Cc4cccc(F)c4C3)CN2C1=O` &system= GT-1a NS3/4A protease with R123T/I132L/D168Q (1a3a) returns loss in potency, R123T/I132L/D168Q (1a3a) relative to GT-1 WT: 2–3 orders of magnitude

GET /values?item= `CC[C@@H]1C[C@]1(NC(=O)[C@@H]1C[C@@H]2CN1C(=O)[C@H](C(C)(C)C)NC(=O)OCC(C)(C)CCCCc1cccc3c1CN(C3)C(=O)O2)C(=O)NS(=O)(=O)C1CC1` &system= GT-1a NS3/4A protease with R123T/I132L/D168Q (1a3a) returns loss in potency, R123T/I132L/D168Q (1a3a) relative to GT-1 WT: 2–3 orders of magnitude

The reported loss in potency, R123T/I132L/D168Q (1a3a) relative to GT-1 WT value, GT-1a NS3/4A protease with R123T/I132L/D168Q (1a3a), for `C=C[C@@H]1C[C@]1(NC(=O)[C@@H]1C[C@@H](Oc2ncc(OC)c3ccc(Cl)cc23)CN1C(=O)[C@@H](NC(=O)OC(C)(C)C)C(C)(C)C)C(=O)NS(=O)(=O)C1CC1` reads 2–3 orders of magnitude
